- Test system: Acinetobacter baumannii
- Protocol Text: Antibacterial activity against Acinetobacter baumannii ATCC 19606 assessed as growth inhibition by broth dilution method
- Type: functional

[
  {
    "Smiles Input": "CC[C@H](C)[C@@H](NC(=O)[C@@H](NC(=O)[C@H](CCC(=O)O)NC(=O)[C@H](Cc1ccccc1)NC(=O)[C@@H](CCN)NC(=O)[C@H](CCN)NC(=O)[C@H](CO)NC(=O)[C@@H](Cc1c[nH]c2ccccc12)NC(=O)[C@@H](CO)NC(=O)CNC(=O)[C@@H](CCN)NC(=O)[C@H](NC(=O)CCCC[C@@H]1SC[C@@H]2NC(=O)N[C@@H]21)C(C)C)C(C)C)C(=O)N[C@@H](C)C(=O)O",
    "MIC": "> 100 µg/mL"
  },
  {
    "Smiles Input": "CC[C@H](C)[C@@H](NC(=O)[C@@H](NC(=O)[C@H](CCC(=O)O)NC(=O)[C@H](Cc1ccccc1)NC(=O)[C@@H](CCN)NC(=O)[C@H](CCN)NC(=O)[C@H](CO)NC(=O)[C@@H](Cc1c[nH]c2ccccc12)NC(=O)[C@@H](CO)NC(=O)CNC(=O)[C@@H](CCN)NC(=O)[C@H](NC(=O)CCC1c2ccccc2-c2ccccc21)C(C)C)C(C)C)C(=O)N[C@@H](C)C(=O)O",
    "MIC": "> 100 µg/mL"
  },
  {
    "Smiles Input": "CCCCCCCC(=O)N[C@@H](C(=O)N[C@H](CCN)C(=O)NCC(=O)N[C@H](CO)C(=O)N[C@H](Cc1c[nH]c2ccccc12)C(=O)N[C@@H](CO)C(=O)N[C@@H](CCN)C(=O)N[C@H](CCN)C(=O)N[C@@H](Cc1ccccc1)C(=O)N[C@@H](CCC(=O)O)C(=O)N[C@H](C(=O)N[C@@H](C(=O)N[C@@H](C)C(=O)O)[C@@H](C)CC)C(C)C)C(C)C",
    "MIC": "12.5 µg/mL"
  }
]

---

- System: Acinetobacter baumannii
- Protocol Text: Antibacterial activity against Acinetobacter baumannii ATCC 19606 assessed as growth inhibition by broth dilution method
- Format: functional
Quick reference: MIC of the listed items.

[
  {
    "Smiles Input": "CC[C@H](C)[C@@H](NC(=O)[C@@H](NC(=O)[C@H](CCC(=O)O)NC(=O)[C@H](Cc1ccccc1)NC(=O)[C@@H](CCN)NC(=O)[C@H](CCN)NC(=O)[C@H](CO)NC(=O)[C@@H](Cc1c[nH]c2ccccc12)NC(=O)[C@@H](CO)NC(=O)CNC(=O)[C@@H](CCN)NC(=O)[C@H](NC(=O)OCC1c2ccccc2-c2ccccc21)C(C)C)C(C)C)C(=O)N[C@@H](C)C(=O)O",
    "MIC, µg/mL": 12.5
  },
  {
    "Smiles Input": "CCCC(=O)N[C@@H](C(=O)N[C@H](CCN)C(=O)NCC(=O)N[C@H](CO)C(=O)N[C@H](Cc1c[nH]c2ccccc12)C(=O)N[C@@H](CO)C(=O)N[C@@H](CCN)C(=O)N[C@H](CCN)C(=O)N[C@@H](Cc1ccccc1)C(=O)N[C@@H](CCC(=O)O)C(=O)N[C@H](C(=O)N[C@@H](C(=O)N[C@@H](C)C(=O)O)[C@@H](C)CC)C(C)C)C(C)C",
    "MIC, µg/mL": 100
  },
  {
    "Smiles Input": "CCCCCCCCC(=O)N[C@@H](C(=O)N[C@H](CCN)C(=O)NCC(=O)N[C@H](CO)C(=O)N[C@H](Cc1c[nH]c2ccccc12)C(=O)N[C@@H](CO)C(=O)N[C@@H](CCN)C(=O)N[C@H](CCN)C(=O)N[C@@H](Cc1ccccc1)C(=O)N[C@@H](CCC(=O)O)C(=O)N[C@H](C(=O)N[C@@H](C(=O)N[C@@H](C)C(=O)O)[C@@H](C)CC)C(C)C)C(C)C",
    "MIC, µg/mL": 50
  }
]
